- System: Math1 enhancer and minimal promoter Luciferase reporter in HEK cells
- assayInfo: Math1 Luciferase reporter assay in HEK cells
- Type: cell-based, human
- conditionNotes: Homo sapiens, HEK293; read-out: Maximum (Fold DMSO)
- Procedure: A human embryonic kidney (HEK) cell line stably expressing a Luciferase gene controlled by an Math1 enhancer and minimal promoter was used in a high-throughput screen (HTS) of 144,000 small molecules to identify compounds that increase Math1 expression (i.e., transcription and/or translation). […] Cells were seeded on 384 well plates and allowed to attach overnight at 37° C. with 5% CO2 in the absence of growth factors. […] Luminescence was assessed at 24, 48, and 72 hours. […]
observable: maximal fold induction

smilestext=O=C(Nc1ccc(Cl)cn1)c1cccs1 observable="maximal fold induction" observedvalue=2
smilestext=COc1cccc(Nc2ncnc3[nH]cnc23)c1 observable="maximal fold induction" observedvalue=1.8
smilestext=Nc1nc(-c2ccc(-c3ccccc3)cc2)cs1 observable="maximal fold induction" observedvalue=1.7
smilestext=Cc1ccc(CSc2nc3ncccc3o2)cc1 observable="maximal fold induction" observedvalue=2.2
smilestext=c1ccc(-c2cc3ccccc3[nH]2)nc1 observable="maximal fold induction" observedvalue=2.2

----------
- Tested on: Math1 enhancer and minimal promoter Luciferase reporter in HEK cells
- assayInfo: Math1 Luciferase reporter assay in HEK cells
- Format: cell-based, human
- conditionNotes: Homo sapiens, HEK293; read-out: Maximum (Fold DMSO)
observable: maximal fold induction

compound=c1ccc2sc(-c3cnc(N4CCOCC4)nc3)cc2c1 experimentalsystem="Math1 enhancer and minimal promoter Luciferase reporter in HEK cells" observedvalue=1.9
compound=N#Cc1c(NC(=O)c2ccccc2F)sc2c1CCCC2 experimentalsystem="Math1 enhancer and minimal promoter Luciferase reporter in HEK cells" observedvalue=1.8
compound=CC(=O)Nc1ccc2nc(NC(=O)c3ccco3)sc2c1 experimentalsystem="Math1 enhancer and minimal promoter Luciferase reporter in HEK cells" observedvalue=2
compound=CCn1ccc(C(=O)Nc2cc(Cl)ccc2Cl)n1 experimentalsystem="Math1 enhancer and minimal promoter Luciferase reporter in HEK cells" observedvalue=1.7
compound=Fc1ccccc1-c1noc(NCCCN2CCCCC2)n1 experimentalsystem="Math1 enhancer and minimal promoter Luciferase reporter in HEK cells" observedvalue=2
compound=COCCNc1ncc(-c2ccc(C)cc2)cn1 experimentalsystem="Math1 enhancer and minimal promoter Luciferase reporter in HEK cells" observedvalue=2
compound=Cc1cccc(/C(N)=N/OC(=O)c2cccnc2)c1 experimentalsystem="Math1 enhancer and minimal promoter Luciferase reporter in HEK cells" observedvalue=1.7
compound=Cc1cc(C(=O)Nc2ccccc2)c(C)n1Cc1cccs1 experimentalsystem="Math1 enhancer and minimal promoter Luciferase reporter in HEK cells" observedvalue=3
compound=COc1ccc(-c2ccc3c(n2)CCCN3)cc1 experimentalsystem="Math1 enhancer and minimal promoter Luciferase reporter in HEK cells" observedvalue=2
compound=COc1ccccc1-c1nc(-c2ccc(C)cc2)no1 experimentalsystem="Math1 enhancer and minimal promoter Luciferase reporter in HEK cells" observedvalue=1.5
compound=Cc1cccc(Nc2nc(N)c(C(=O)C(C)C)s2)c1 experimentalsystem="Math1 enhancer and minimal promoter Luciferase reporter in HEK cells" observedvalue=2.2
compound=NC(=O)c1c(NC(=O)c2cc3ccccc3o2)sc2c1CCC2 experimentalsystem="Math1 enhancer and minimal promoter Luciferase reporter in HEK cells" observedvalue=2.2
compound=Cc1ccc(COn2c(-c3ccccc3)nc3ccc([N+](=O)[O-])cc32)cc1 experimentalsystem="Math1 enhancer and minimal promoter Luciferase reporter in HEK cells" observedvalue=2
compound=COc1ccc(-c2nc3ccc(Cl)cc3n2OCc2ccccc2Cl)cc1 experimentalsystem="Math1 enhancer and minimal promoter Luciferase reporter in HEK cells" observedvalue=2
compound=CCc1c(C)[nH]c2cc(-c3ccc(Cl)cc3)nn2c1=O experimentalsystem="Math1 enhancer and minimal promoter Luciferase reporter in HEK cells" observedvalue=1.9
compound=CCN(CC)c1ncnc2c1cnn2-c1cccc(C)c1 experimentalsystem="Math1 enhancer and minimal promoter Luciferase reporter in HEK cells" observedvalue=2.3
compound="Cc1cccc(-c2nc3cc(C)ccc3o2)c1 [CP-0103978, 5-methyl-2-m-tolylbenzo[d]oxazole]" experimentalsystem="Math1 enhancer and minimal promoter Luciferase reporter in HEK cells" observedvalue=2
compound=O=C(Nc1ccccc1Cl)C(=O)c1c[nH]c2ccccc12 experimentalsystem="Math1 enhancer and minimal promoter Luciferase reporter in HEK cells" observedvalue=1.9
compound=O=C(Nc1ccc(Cl)cn1)c1sc2ccccc2c1Cl experimentalsystem="Math1 enhancer and minimal promoter Luciferase reporter in HEK cells" observedvalue=1.7
compound="CN(C)c1ccc(C2NN=C(c3ccc(Cl)cc3)N2)cc1 (stereo not drawn)" experimentalsystem="Math1 enhancer and minimal promoter Luciferase reporter in HEK cells" observedvalue=1.9
compound=O=C(Nc1nc2ccc(Br)cc2s1)c1cccs1 experimentalsystem="Math1 enhancer and minimal promoter Luciferase reporter in HEK cells" observedvalue=2
compound="CC(C)(C)c1ccc(C(=O)NCC2CCCO2)cc1 (stereo not drawn)" experimentalsystem="Math1 enhancer and minimal promoter Luciferase reporter in HEK cells" observedvalue=2
compound=Cc1ccc(-c2cnc3ccccc3n2)cc1C experimentalsystem="Math1 enhancer and minimal promoter Luciferase reporter in HEK cells" observedvalue=1.9
compound=Cc1oc(C(C)(C)C)cc1-c1cc(NC(=O)c2ccccc2)[nH]n1 experimentalsystem="Math1 enhancer and minimal promoter Luciferase reporter in HEK cells" observedvalue=2
compound=Cc1cccc(NC(=O)c2ccc3c(c2)OCCO3)n1 experimentalsystem="Math1 enhancer and minimal promoter Luciferase reporter in HEK cells" observedvalue=1.9
compound=O=C(COc1ccccc1)N1CCc2ccccc21 experimentalsystem="Math1 enhancer and minimal promoter Luciferase reporter in HEK cells" observedvalue=1.8
compound=O=C(NCCOc1ccc(F)cc1)c1cccs1 experimentalsystem="Math1 enhancer and minimal promoter Luciferase reporter in HEK cells" observedvalue=2.2
compound="O=C(NCC1CCCO1)c1sc2ccccc2c1Cl (stereo not drawn)" experimentalsystem="Math1 enhancer and minimal promoter Luciferase reporter in HEK cells" observedvalue=1.6
compound=COc1ccc(-c2nc3ccc(Cl)cc3n2OCc2ccc(C)cc2)cc1 experimentalsystem="Math1 enhancer and minimal promoter Luciferase reporter in HEK cells" observedvalue=2
compound=COc1ccc(-c2cn3ccsc3n2)cc1 experimentalsystem="Math1 enhancer and minimal promoter Luciferase reporter in HEK cells" observedvalue=1.8
